Assay: Cytotoxicity of compound towards Y190 yeast cells
Type: functional, cell-based
Settings: Saccharomyces cerevisiae
Measured EC50 values are reported for all entries that follow.

Field: example entries. Status: answers known.
CC(C(=O)O)=C1CCC(C)CC1 (stereo not drawn)    > 300 µM
CC(C(=O)O)=C1CCCCCC1    > 300 µM
O=C(O)C=C1CCCC1    > 300 µM
O=C(O)C=C1CCCCCC1    > 300 µM
CC(C(=O)O)=C1CCCCC1    > 300 µM
CCC1CCC(=C(C)C(=O)O)CC1 (stereo not drawn)    125 µM

For record CC(C(=O)O)=C1CCC(c2ccccc2)CC1 (stereo not drawn) the listed EC50 is 143 µM

For record CC(C(=O)O)=C1CCCC1 the listed EC50 is > 300 µM

For record O=CC=C1CCCCCC1 the listed EC50 is > 300 µM

---

Assay: Cytotoxicity of compound towards Y190 yeast cells
Format: functional, cell-based
Settings: Saccharomyces cerevisiae
parameter: EC50 (µM)
The figure you give is taken to be in µM; do not add the unit.

CC(C(=O)O)=C1CCC(C(C)(C)C)CC1 (centres undefined)    81
COc1ccc(C2CCC(=C(C)C(=O)O)CC2)cc1 (centres undefined)    130

For record CCCC1CCC(=C(C)C(=O)O)CC1 (centres undefined) the listed EC50 is 74
